target: recombinant DYRK1A kinase (Homo sapiens (Human), UniProt Q13627); assay: DYRK1A kinase assay (Ser/Thr 18 peptide Z-lyte FRET); details: 30 μM ATP, 1 h room temperature;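 further: Read-out is the coumarin to fluorescein emission ratio, referenced to unphosphorylated (0%) and phosphorylated (100%) Ser/Thr 18 peptide controls, values from dose-response curves by non-linear regression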
property_name: log10 of EC50 (log10 of the value in nM)
Please keep in mind that the values are log10 of EC50 expressed in nM.

Cn1cc(-c2ccc3cnc(NC(=O)[C@@H]4CCCNC4)cc3c2)nn1: 0.63

Challenge: Supply measured log10 of EC50 of `Cn1cc(-c2ccc3cnc(NC(=O)C4CCN(C(=O)CN5CCCC5)CC4)cc3c2)nn1` in your reply.
Response given: 0.51

Challenge: Give the value of log10 of EC50 reported for the following: CC(C)CN1CCCC(C(=O)Nc2cc3cc(-c4cnn(C)c4)ccc3cn2)CC1 (stereo not shown)
Response given: 0.76

Challenge: For the compound `Cn1cc(-c2ccc3cnc(NC(=O)CN4CCC5(CC4)CC5)cc3c2)cn1` , report log10 of EC50.
Response given: 1.16

Challenge: Give recorded log10 of EC50. `CN(CC(=O)Nc1cc2cc(-c3cnn(C)c3)ccc2cn1)C1CCC1`
Response given: 0.89

Challenge: Using known records, supply log10 of EC50 for `C[C@@H]1CCCN1CC(=O)Nc1cc2cc(-c3cnc4n3CCNC4)ccc2cn1`
Response given: 2.29

Challenge: Given the compound `O=C(CN1CCCC1)Nc1cc2cc(-c3cnn4c3CN(CCF)CC4)ccc2cn1` , write its reported log10 of EC50.
Response given: 1.32

====

Recorded measurements of EC50, one per entry
test system: Tau phosphorylation at Ser396 (pSer396); assay: Tau phosphorylation assay (pSer396 ELISA / western blot) in SH-SY5Y cells; type: cell-based, human; settings: Homo sapiens; SH-SY5Y cells, overnight (16-18 h) exposure; read-out: pSer396 Tau EC50

Before answering, review these 3 worked examples.
O=C(CN1CCCCC1)Nc1cc2cc(-c3cncs3)ccc2cn1 [Compound 760]: 1200 nM
Cn1cc(-c2ccc3cnc(NC(=O)C4CNC4)cc3c2)cn1 [Compound 16]: > 10000 nM
Cn1cc(-c2ccc3cnc(NC(=O)C4CC4)cc3c2)nn1 [Compound 433]: 32 nM

Challenge: Specify reported EC50 for the compound shown: CC(C(=O)Nc1cc2cc(-c3cncn3C)ccc2cn1)N1CCCC1 (stereo not shown) [Compound 579]
Response given: 62 nM

====

Catalogue of EC50 values
system: Tau phosphorylation at Ser396 (pSer396); assay: Tau phosphorylation assay (pSer396 ELISA / western blot) in SH-SY5Y cells; assay type: cell-based, human; conditions: Homo sapiens; SH-SY5Y cells, overnight (16-18 h) exposure; read-out: pSer396 Tau EC50;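 further: EC50 for reduction of Tau pSer396 in lysed cells, measured by colorimetric ELISA or chemiluminescent western blot, both using the same pSer396 antibody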
Please give a number only; it is taken to be in nM.

Take a look at these entries with their results.
Cn1cc(-c2ccc3cnc(NC(=O)C(C)(C)F)cc3c2)nn1 [Compound 312]: 762
CO[C@H]1CC[C@H](C(=O)Nc2cc3cc(-c4nnc(C)s4)ccc3cn2)CC1 [Compound 885]: 878
CN1CCN(CC(=O)Nc2cc3cc(-c4cnn(C)c4)ccc3cn2)CC1 [Compound 118]: 1200
Cn1cc(-c2ccc3cnc(NC(=O)CN4CCN(CCF)CC4)cc3c2)cn1 [Compound 354]: 1200
Cn1cc(-c2ccc3cnc(NC(=O)[C@H]4CC[C@H](N)CC4)cc3c2)cn1 [Compound 365]: 1200

Now take the following compound into account.
Challenge: Output reported EC50 of the compound Cc1ncc(-c2ccc3cnc(NC(=O)[C@H]4CC[C@H](N(C)C)CC4)cc3c2)o1 [Compound 1082] on Tau phosphorylation at Ser396 (pSer396).
Response given: 1100

====

test system: secreted β-amyloid 40 (Aβ40) peptide; experiment: Secreted β-amyloid 40 (Aβ40) peptide in APP overexpressing SH-SY5Y-APP cells; assay type: cell-based; details: Homo sapiens, overnight (16-18 hours)
property_name: IC50

In the examples that follow, each entry is paired with its recorded IC50.
Cn1nncc1-c1ccc2cnc(NC(=O)C3CCN(CCC(F)(F)F)CC3)cc2c1 [Compound 248]: > 10 µM
Cn1cc(-c2ccc3cnc(NC(=O)C4CCN(CC(C)(F)F)CC4)cc3c2)cn1 [Compound 83]: > 10 µM

Challenge: Quote IC50 reported for Cn1cncc1-c1ccc2cnc(NC(=O)C3C(C)(C)C3(C)C)cc2c1 [Compound 269] please.
Response given: > 10 µM

====

molecular target: recombinant GSK3β kinase (Homo sapiens (Human), UniProt P49841); assay: GSK3β kinase assay (Ser/Thr 09 peptide Z-lyte FRET); conditions: 46 μM ATP, 1 h room temperature;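 further: kinase activity read as coumarin to fluorescein emission ratio, 11-point threefold dilutions from 10 µM to 0.0003 µM in duplicate, unphosphorylated and phosphorylated peptide as 0% and 100% controls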
Sequence (P49841 whole entry): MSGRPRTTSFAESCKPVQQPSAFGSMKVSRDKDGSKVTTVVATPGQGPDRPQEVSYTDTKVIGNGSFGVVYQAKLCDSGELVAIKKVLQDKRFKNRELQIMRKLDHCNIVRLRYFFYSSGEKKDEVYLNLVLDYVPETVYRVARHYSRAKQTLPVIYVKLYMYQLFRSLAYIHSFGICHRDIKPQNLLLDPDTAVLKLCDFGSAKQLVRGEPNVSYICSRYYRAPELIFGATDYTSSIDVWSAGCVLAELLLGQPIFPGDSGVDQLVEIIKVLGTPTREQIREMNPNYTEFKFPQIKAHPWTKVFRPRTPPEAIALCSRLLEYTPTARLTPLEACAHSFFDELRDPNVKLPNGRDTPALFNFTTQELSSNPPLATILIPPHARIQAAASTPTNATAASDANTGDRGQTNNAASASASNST
pEC50: −log10 of the molar value.
Where pEC50 equals or exceeds 7, the correct label is YES; where it does not, the label is NO.

Take a look at these entries with their results.
Cn1cc(-c2ccc3cnc(NC(=O)CN4C5CCC4COC5)cc3c2)cn1: NO
Cn1cc(-c2ccc3cnc(NC(=O)C45CC(CO)(C4)C5)cc3c2)cn1: NO
Cc1nnc(-c2ccc3cnc(NC(=O)C4CCN(CC(C)C)CC4)cc3c2)o1: YES
CN1CC2(CC(C(=O)Nc3cc4cc(-c5cncs5)ccc4cn3)C2)C1: YES
O=C(Nc1cc2cc(-c3cnn4c3CNCC4)ccc2cn1)C1CCN(CC2(C(F)(F)F)CC2)CC1: YES

Challenge: Hi, just wondering whether `Cc1nnc(-c2ccc3cnc(NC(=O)CN4CCCCC4)cc3c2)s1` shows pEC50 of 7 or higher.
Response given: YES

Challenge: Item `[2H]c1nc(NC(=O)CN2CCCC2)cc2cc(-c3cnn(C)c3)ccc12` with pEC50 of 7 or above?
Response given: YES

Challenge: Hi team, for `[2H]C1([2H])CCC([2H])([2H])N1CC(=O)Nc1cc2cc(-c3cnn(C)c3)ccc2cn1` , is the recorded pEC50 at or above 7?
Response given: YES

Challenge: Test whether the compound `Cn1cc(-c2ccc3cnc(NC(=O)C4CCC(F)(F)CC4)cc3c2)nn1` records pEC50 of 7 or higher.
Response given: YES

Challenge: Is it the case that `Cn1ncc(-c2ccc3cnc(NC(=O)C4CCC(F)(F)CC4)cc3c2)c1CN1CCCCC1` has pEC50 reaching or exceeding 7?
Response given: YES

Challenge: Could you please find out whether `Cn1nncc1-c1ccc2cnc(NC(=O)C3CCN(CCC(F)(F)F)CC3)cc2c1` has pEC50 that meets 7 or exceeds it?
Response given: NO

Challenge: Confirm if pEC50 reported for the compound `CC(C)CN1CCC[C@@H](C(=O)Nc2cc3cc(-c4cn(C)nn4)ccc3cn2)C1` is 7 or above.
Response given: YES

====

target: recombinant DYRK1A kinase (Homo sapiens (Human)); assay: DYRK1A kinase assay (Ser/Thr 18 peptide Z-lyte FRET); conditions: 30 μM ATP, 1 h room temperature
property_name: EC50 (nM)
Return type: number; implicit unit nM.

C[C@H]1CN(C)CCN1CC(=O)Nc1cc2cc(-c3cnn(C)c3)ccc2cn1 [Compound 355]: 6.4
Cc1ncc(-c2ccc3cnc(NC(=O)[C@H]4CC[C@H](N(C)C)CC4)cc3c2)o1 [Compound 1017]: 3.1
CC(C)CN1CCC(F)(C(=O)Nc2cc3cc(-c4cnc5n4CCNC5)ccc3cn2)CC1 [Compound 1021]: 42.2
CN1CCN(CC(=O)Nc2cc3cc(-c4cn(C)nn4)ccc3cn2)CC1 [Compound 500]: 10.6
Cn1cc(-c2ccc3cnc(NC(=O)CN4CCC(O)CC4)cc3c2)cn1 [Compound 1078]: 6
CN1CC2(CC(C(=O)Nc3cc4cc(-c5cncs5)ccc4cn3)C2)C1 [Compound 700]: 2.2
COCCN1CCC(C(=O)Nc2cc3cc(-c4cnn(C)c4)ccc3cn2)CC1 [Compound 89]: 2.7
CN1CCC(N2CCC(C(=O)Nc3cc4cc(-c5cnco5)ccc4cn3)CC2)CC1 [Compound 978]: 3.9
[2H]C1([2H])OC([2H])([2H])C([2H])([2H])N(CC(=O)Nc2cc3cc(-c4nnc(C)s4)ccc3cn2)C1([2H])[2H] [Compound 1052]: 18
Cc1ncc(-c2ccc3cnc(NC(=O)[C@H]4C[C@H](N5CCOCC5)C4)cc3c2)o1 [Compound 1061]: 4.3

Challenge: Input Cn1cc(-c2cc3cc(NC(=O)C4CCN(CCF)CC4)ncc3cc2F)cn1 [Compound 371] , output reported EC50.
Response given: 2.4

Challenge: Provide EC50 value for the following molecule: Cn1cc(-c2ccc3cnc(NC(=O)[C@H]4CCCNC4)cc3c2)cn1 [Compound 110]
Response given: 4.7

Challenge: Please give the documented EC50 of O=C(Nc1cc2cc(-c3cnn4c3CNCC4)ccc2cn1)C1CCN(CC2(C(F)(F)F)CC2)CC1 [Compound 997]
Response given: 186

Challenge: Find the measured EC50 of CN1CCC(NC(=O)Nc2cc3cc(-c4cnn(C)c4)ccc3cn2)CC1 [Compound 1090] and report it.
Response given: 6.9

Challenge: Look up and report measured EC50 for this entry: Cn1cc(-c2ccc3cnc(NC(=O)C4CCN(CC5(C)COC5)CC4)cc3c2)cn1 [Compound 87]
Response given: 3.3

Challenge: Give EC50 for the following molecule: CN1CC2(CC(C(=O)Nc3cc4cc(-c5cnn(C)c5)ccc4cn3)C2)C1 [Compound 324]
Response given: 2.1

Challenge: Give EC50 for the following molecule: O=C(Nc1cc2cc(-c3cnn4c3CN(CCF)CC4)ccc2cn1)C1CCC(F)(F)CC1 [Compound 283]
Response given: 7

Challenge: Given CN1CCn2c(-c3ccc4cnc(NC(=O)C5CC5)cc4c3)cnc2C1 [Compound 266] , respond with its EC50.
Response given: 17.4
